Test system: THRa homodimer (NR concentration 90 nM)
testProtocol: PBM binding z-score (relative to random genomic background probes); higher = stronger binding; sequences stand for … in GC…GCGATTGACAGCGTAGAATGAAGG
PBM binding z-score values by entry
Reply with the value as a number alone.

As a guide, the following entries are already answered.
seq: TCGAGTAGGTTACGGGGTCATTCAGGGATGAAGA
result: 2.5
//
seq: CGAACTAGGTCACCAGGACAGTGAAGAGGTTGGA
result: 1.95

// PBM binding z-score value for "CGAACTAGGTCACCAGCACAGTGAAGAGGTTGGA" : 1.29

* * *

System: PPARg:RXRa 30nM:10nM, anti-RXR (NR concentration 30 nM, RXRa partner concentration 10 nM)
testProtocol: PBM binding z-score (relative to random genomic background probes); higher = stronger binding; sequences stand for … in GC…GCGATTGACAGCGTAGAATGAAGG
Class (by PBM binding z-score) -- one = under 1, two = from 1 up to 4, three = 4 and over

Previously resolved entries follow.
seq: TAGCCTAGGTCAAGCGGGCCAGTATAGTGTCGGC
cat: one
--
seq: CTATGTAGGTTAAGGAGGTCATTCAGTTTGAAAG
cat: two
--
seq: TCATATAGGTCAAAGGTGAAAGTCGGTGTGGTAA
cat: three
--
seq: GATACAAGGTCAGCTAGAGGCCAGAGTATGGAAA
cat: two
--
seq: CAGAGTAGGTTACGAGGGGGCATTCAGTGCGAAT
cat: two

**Query** Sort "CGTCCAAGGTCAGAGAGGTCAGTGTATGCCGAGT" into one of the categories.
**Result** one

**Query** Sort "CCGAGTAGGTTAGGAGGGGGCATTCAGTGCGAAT" into one of the categories.
**Result** two

**Query** Sort "CCTAGTTGGTCAAGGTCACGCACGCTATAGGTAC" into one of the categories.
**Result** two

**Query** Sort "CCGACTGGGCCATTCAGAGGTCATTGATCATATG" into one of the categories.
**Result** one

**Query** Sort "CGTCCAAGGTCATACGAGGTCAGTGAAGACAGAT" into one of the categories.
**Result** two

**Query** Sort "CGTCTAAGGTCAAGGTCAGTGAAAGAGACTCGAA" into one of the categories.
**Result** two

**Query** Sort "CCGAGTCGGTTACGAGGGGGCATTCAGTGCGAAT" into one of the categories.
**Result** one

**Query** Sort "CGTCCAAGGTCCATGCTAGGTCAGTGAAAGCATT" into one of the categories.
**Result** one

* * *

Tested on: RARg:RXRa (NR concentration 270 nM, RXRa partner concentration 90 nM)
testProtocol: PBM binding z-score (relative to random genomic background probes); higher = stronger binding; sequences stand for … in GC…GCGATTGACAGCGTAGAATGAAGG
PBM binding z-score values by entry
Reply with the value as a number alone.

As a guide, the following entries are already answered.
seq: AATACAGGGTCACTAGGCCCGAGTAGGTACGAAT
result: 5.05

seq: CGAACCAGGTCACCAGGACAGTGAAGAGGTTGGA
result: 5.06

Now for the sequence whose PBM binding z-score we want.
// PBM binding z-score value for "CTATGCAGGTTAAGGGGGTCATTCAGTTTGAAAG" : 5.13

Cited source for all entries: the supplement of paper PMC6555819
